# assay: Biodistribution studies incl. blocking experiments
# Type: in vivo
# condition set: healthy BALB/c mice, 10 min p.i.
Record form. Attribute: Biodistribution Spleen. Fill in for each entry.
One number for each entry, in % ID/g.

Reference set (4 entries):
# compound, units, Biodistribution Spleen
data = [
    ("CC(=O)N[C@H]1[C@H](OCCOCCOCCn2cc(CNC(=O)CCP(=O)([O-])CN3CCN(CP(=O)([O-])CCC(=O)NCc4cn(CCOCCOCCO[C@@H]5O[C@H](CO)[C@H](O)[C@H](O)[C@H]5NC(C)=O)nn4)CCN(CP(=O)([O-])CCC(=O)NCc4cn(CCOCCOCCO[C@@H]5O[C@H](CO)[C@H](O)[C@H](O)[C@H]5NC(C)=O)nn4)CC3)nn2)O[C@H](CO)[C@H](O)[C@@H]1O.[68Ga+3] [[^68Ga]Ga-TRAP-GalNAc]", "% ID/g", 0.24),
    ("O=C(CCP(=O)([O-])CN1CCN(CP(=O)([O-])CCC(=O)NCc2cn(CCOCCOCCO[C@@H]3O[C@H](CO)[C@@H](O)[C@H](O)[C@H]3O)nn2)CCN(CP(=O)([O-])CCC(=O)NCc2cn(CCOCCOCCO[C@@H]3O[C@H](CO)[C@@H](O)[C@H](O)[C@H]3O)nn2)CC1)NCc1cn(CCOCCOCCO[C@@H]2O[C@H](CO)[C@@H](O)[C@H](O)[C@H]2O)nn1.[68Ga+3] [[^68Ga]Ga-TRAP-Gluco, reference compound]", "% ID/g", 0.94),
    ("O=C(CCP(=O)([O-])CN1CCN(CP(=O)([O-])CCC(=O)NCc2cn(CCOCCOCCO[C@@H]3O[C@H](CO)[C@H](O)[C@H](O)[C@H]3O)nn2)CCN(CP(=O)([O-])CCC(=O)NCc2cn(CCOCCOCCO[C@@H]3O[C@H](CO)[C@H](O)[C@H](O)[C@H]3O)nn2)CC1)NCc1cn(CCOCCOCCO[C@@H]2O[C@H](CO)[C@H](O)[C@H](O)[C@H]2O)nn1.[68Ga+3] [[^68Ga]Ga-TRAP-Galactan]", "% ID/g", 0.84),
    ("O=C(CCP(=O)([O-])CN1CCN(CP(=O)([O-])CCC(=O)NCc2cn([C@@H]3O[C@H](CO)[C@H](O)[C@H](O)[C@H]3O)nn2)CCN(CP(=O)([O-])CCC(=O)NCc2cn([C@@H]3O[C@H](CO)[C@H](O)[C@H](O)[C@H]3O)nn2)CC1)NCc1cn([C@@H]2O[C@H](CO)[C@H](O)[C@H](O)[C@H]2O)nn1.[68Ga+3] [[^68Ga]Ga-Galacto-TRAP]", "% ID/g", 5.58),
]

Kindly review the next compound as well.
Give the measured Biodistribution Spleen of O=C(O)CN1CCN(CC(=O)O)CCN([C@H](CCC(=O)NCCCC(=O)NC(COCc2cn(CCOCCOCCO[C@@H]3O[C@H](CO)[C@H](O)[C@H](O)[C@H]3O)nn2)(COCc2cn(CCOCCOCCO[C@@H]3O[C@H](CO)[C@H](O)[C@H](O)[C@H]3O)nn2)COCc2cn(CCOCCOCCO[C@@H]3O[C@H](CO)[C@H](O)[C@H](O)[C@H]3O)nn2)C(=O)O)CC1 [[^68Ga]Ga-NODAGA-TriGalactan, metal not drawn] .
0.78
